The reported numbers originate from ChEMBL document CHEMBL3988442.

# Tested on: Wolbachia pipientis
# assay summary: Anti-Wolbachia Cell-Based Screen
# Assay type: functional
# Design: scale not given: in the data most compounds retested in dose-response had high values
# experimental setup: 5 µM
The whole screen tested about 48,000 compounds, of which about 13,000 (27%) showed an effect of 50% or more. Some of the results follow.
Note to self: Percent Effect under 70% means rule met, ties and anything higher get rule not met.

Example entries and their recorded answers appear below.
compound=CNc1ncc(CN(C)c2nc(C3CCCC3)nc3c2cnn3C)cn1 class_assignment="rule not met"
compound=Cc1nn(C)c(C)c1CN(C)c1nc(C2CCCC2)nc2c1cnn2C class_assignment="rule not met"
compound=CNCCCNc1nc(C2CCCC2)nc2c1cnn2C class_assignment="rule met"
compound="CC1COc2ccccc2N1C(=O)c1ccnc(-n2cncn2)c1 (stereo unspecified)" class_assignment="rule met"
compound="Cc1cc(CC(C)Nc2nc(C3CCCC3)nc3c2cnn3C)[nH]n1 (stereo unspecified)" class_assignment="rule met"

Q: I wonder whether `CN(Cc1ccno1)c1nc(C2CCCC2)nc2c1cnn2C` has Percent Effect below 70%. Can you tell?
Result: rule not met

----------
# Tested on: Wolbachia pipientis
# assay summary: Anti-Wolbachia Cell-Based Screen
# Type: functional
# Parameters: scale not given: in the data most compounds retested in dose-response had high values
# experimental setup: 5 µM
About 13,000 (27%) of roughly 48,000 compounds showed an effect of 50% or more. The list shows a part of the results.
property label: Percent Effect

compound="CCC(C)NS(=O)(=O)c1ccc(/C=C\\c2onc(C)c2NC(C)=O)cc1 (stereo not given)" observed_value=102.8%
compound="CCN(CC1CCCO1)S(=O)(=O)c1cc(NC(C)=O)ccc1C (stereo not given)" observed_value=-4.974%
compound="Cc1nccn1C1CCCN(C(=O)c2ccc(-n3cccn3)nc2)C1 (stereo not given)" observed_value=122%
compound=CO[C@H]1CN(C(=O)c2cn3cc(C)ccc3n2)CC[C@@]12CCCO2 observed_value=93.74%
compound=COc1ccccc1CN1C(=O)O[C@@H]2CN(C(C)C)C[C@@H]21 observed_value=11.8%
compound=O=C(c1cn2cc(Cl)ccc2n1)N1CCC(CCn2cccn2)CC1 observed_value=2.946%
compound=CC(C)N(C)C(=O)c1ccc(Cl)c(NC(=O)C2CCC2)c1 observed_value=2.877%
compound=CO[C@H]1CN(C(=O)c2cccc(C)n2)CC[C@@]12CCCO2 observed_value=114.9%
compound="COc1ccccc1CN1CC(O)CN(S(=O)(=O)C(C)C)CC1=O (stereo not given)" observed_value=100.2%

Proceeding to the next compound to report its Percent Effect.
Q: Give recorded Percent Effect with Wolbachia pipientis for the following compound: Cc1cccc(C(=O)N2CC(C(=O)NCC3CC3)C3(CCOCC3)C2)n1.O=C(O)C(F)(F)F (stereo not given)
Result: -7.832%

----------
# System: Wolbachia pipientis
# assay summary: Anti-Wolbachia Cell-Based Screen
# Assay type: functional
# Design: scale not given: in the data most compounds retested in dose-response had high values
# experimental setup: 5 µM
Screen size: about 48,000 compounds; about 13,000 (27%) showed an effect of 50% or more. The list shows a part of the results.
property label: Percent Effect (%)
Return type: number; implicit unit %.

compound="CC1CN(Cc2ccccc2Cn2cccn2)CCN1C (stereo unspecified)" units=% observed_value=-6.674
compound="CC1CCCN(S(=O)(=O)NCc2ccccc2Cn2cncn2)C1 (stereo unspecified)" units=% observed_value=105.5
compound=O=C(CCNC(=O)C1CCCC1)NCc1ccccc1Cn1cncn1 units=% observed_value=1.009
compound=O=S(=O)(NCc1ccccc1Cn1cncn1)C1CCCC1 units=% observed_value=4.456
compound=Cc1nnc2n1CCN(C(=O)c1cnc3c(cnn3C(C)C)c1)C2 units=% observed_value=-12.78

Q: Give recorded Percent Effect with Wolbachia pipientis for the following compound: `CC1CCN(S(=O)(=O)NCc2ccccc2Cn2cccn2)CC1`
Result: 110.3
